// data source = paper PMC9132363

System: NRF2
assay-protocol: 3×ARE-LUC luciferase reporter assay
Assay type: cell-based, human
particulars: Homo sapiens, 16 h; 20 microM, supplementary CSV; read-out: NRF2 induction @ 20 microM (fold change)
Structures can show the parent of a compound that is named as a salt.
property-name: fold induction at 20 µM
Give your answer as a number; write no unit.

Some entries whose results are on file:
COc1cc(/C=C/C(=O)N2CCN(S(=O)(=O)c3cccc4cnccc34)CC2)ccc1O [Compound 1e] | 1.1
O=C(CCc1ccc(O)c(O)c1)N1CCN(S(=O)(=O)c2cccc3cnccc23)CC1 [Compound 1c] | 2.2
COC(=O)/C=C/C(=O)OC [DMF, dimethyl fumarate, reference compound] | 4.9

// query Given COc1cc(/C=C/C(=O)N2CCCN(S(=O)(=O)c3cccc4cnccc34)CC2)ccc1O [Compound 1f] , state its recorded fold induction at 20 µM.
// result 0.8

// query // returns reported fold induction at 20 µM for input O=C(/C=C/c1ccc(O)c(O)c1)N1CCN(S(=O)(=O)c2cccc3cnccc23)CC1 [Compound 1a]
// result 0.8
